Source listed as patent US20210253718A1.

Target: T1, FZD2 CRD (Homo sapiens, UniProt Q14332)
T1 construct: D35-P161; GPI anchor signal (C); expressed in transfected cells; host or cells: CHO cells, lentiviral pLenti-puro
Test: Immunofluorescence of anti-FZD5 Fab binding to CHO cells overexpressing Frizzled CRD
Parameters: key: −: no binding; +: very weak binder; ++: weak binder; +++: good binder; ++++: very good binder
VALUE TYPE: Immunofluorescence binding, Frizzled CRD overexpressed on CHO cells: FZD2

MOLECULE	MEASURED VALUE
Fab-2900: anti-FZD5 Fab with antibody variable region Fv-2900; CDR SEQ ID NOs: 35, 36, 39, 78, 115, 153 (antibody, V domains shown) VH: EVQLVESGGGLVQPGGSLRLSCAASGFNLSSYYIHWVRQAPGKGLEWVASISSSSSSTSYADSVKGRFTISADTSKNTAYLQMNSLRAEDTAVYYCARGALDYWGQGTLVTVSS VL: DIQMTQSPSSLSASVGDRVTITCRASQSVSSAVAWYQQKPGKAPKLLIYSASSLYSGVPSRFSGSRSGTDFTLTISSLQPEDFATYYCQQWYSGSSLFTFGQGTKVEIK	−
Fab-2916: anti-FZD5 Fab with antibody variable region Fv-2916; CDR SEQ ID NOs: 35, 36, 55, 94, 131, 167 (antibody, V domains shown) VH: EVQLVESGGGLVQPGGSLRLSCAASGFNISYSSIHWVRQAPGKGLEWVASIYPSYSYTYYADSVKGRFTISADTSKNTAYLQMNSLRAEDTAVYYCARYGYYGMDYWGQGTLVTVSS VL: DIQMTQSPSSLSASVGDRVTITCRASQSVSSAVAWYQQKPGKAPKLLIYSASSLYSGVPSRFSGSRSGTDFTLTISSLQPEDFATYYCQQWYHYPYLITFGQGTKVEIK	++++
